Cited source for all entries: patent US20230061417A1

Exercise: for every item that follows, state its recorded IC50.
target: human recombinant LPA2 (Homo sapiens); construct: expressed in transfected cells; host or cells: CHO (CHO-hLPA2 cell line); assay: FLIPR calcium mobilization assay, LPA2 antagonism in CHO-hLPA2 cells; assay type: cell-based; conditions: human recombinant LPA2 in CHO cells, LPA EC80 stimulation, 30 min pre-incubation; read-out: LPA2 IC50
Sequence (Q9HBW0 whole entry): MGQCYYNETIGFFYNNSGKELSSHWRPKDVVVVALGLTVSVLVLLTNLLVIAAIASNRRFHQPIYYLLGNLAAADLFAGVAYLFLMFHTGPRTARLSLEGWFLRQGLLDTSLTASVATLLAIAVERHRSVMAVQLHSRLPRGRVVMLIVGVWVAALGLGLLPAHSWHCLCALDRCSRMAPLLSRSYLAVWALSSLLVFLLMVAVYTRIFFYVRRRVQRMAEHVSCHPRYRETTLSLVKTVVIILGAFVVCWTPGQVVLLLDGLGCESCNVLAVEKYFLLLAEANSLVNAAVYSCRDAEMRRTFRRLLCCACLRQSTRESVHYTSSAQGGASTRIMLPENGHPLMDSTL

Recorded IC50, per entry:
COMPOUND SMILES: CC(=O)Nc1cc(F)c(S(=O)(=O)N2CCN(C[C@H](C)Nc3ncnc4c(C)csc34)CC2)cc1Cl
IC50: < 1000 nM
--
COMPOUND SMILES: Cc1csc2c(N[C@@H](C)CN3CCN(S(=O)(=O)c4cnc(-c5ccccc5)nc4)CC3)ncnc12
IC50: < 1000 nM
--
COMPOUND SMILES: CC(=O)Nc1cc(F)c(S(=O)(=O)N2CCN(C[C@H](C)Nc3ncnc4c(C)csc34)CC2)cc1C
IC50: < 1000 nM
--
COMPOUND SMILES: COC(=O)Nc1nc(C)c(S(=O)(=O)N2CCN(C[C@H](C)Nc3nc(C4CC4)nc4c(C)csc34)CC2)s1
IC50: 10 to 100 nM
--
COMPOUND SMILES: COC(=O)Nc1nc(C)c(S(=O)(=O)N2CCN(C[C@H](C)Nc3nc(C)nc4c(C)csc34)CC2)s1
IC50: < 1000 nM
--
COMPOUND SMILES: Cc1nc(NC(=O)C2CN(C(=O)OC(C)(C)C)C2)sc1S(=O)(=O)N1CCN(C[C@H](C)Nc2ncnc3c(C)csc23)CC1
IC50: < 1000 nM
--
COMPOUND SMILES: Cc1noc(-c2ccc(S(=O)(=O)N3CCN(C[C@H](C)Nc4ncnc5c(C)csc45)CC3)s2)c1C
IC50: 10 to 100 nM
--
COMPOUND SMILES: Cc1csc2c(N[C@@H](C)CN3CCN(S(=O)(=O)c4ccc(-c5ccccn5)s4)CC3)ncnc12
IC50: < 1000 nM

Go through the items and report each one's IC50.
1. Cc1nc(-c2ccc(S(=O)(=O)N3CCN(C[C@H](C)Nc4ncnc5c(C)csc45)CC3)cc2)cs1
2. Cc1csc2c(N[C@@H](C)CN3CCN(S(=O)(=O)c4cccc(Br)c4)CC3)ncnc12
3. Cc1csc2c(N[C@@H](C)CN3CCN(S(=O)(=O)c4cnn(-c5ccc(C(F)(F)F)cn5)c4)CC3)ncnc12
4. Cc1csc(-c2ccc(S(=O)(=O)N3CCN(C[C@H](C)Nc4ncnc5c(C)csc45)CC3)cc2)n1
5. Cc1csc2c(N[C@@H](C)CN3CCN(S(=O)(=O)c4ccc(Br)c(Cl)c4)CC3)ncnc12

1: < 1000 nM; 2: < 1000 nM; 3: < 1000 nM; 4: < 1000 nM; 5: < 1000 nM

Can you give me IC50 for all of these, one by one?
1. CC(=O)Nc1nc(C)c(S(=O)(=O)N2CCN(C[C@H](C)Nc3nc(C4CC4)nc4c(C)csc34)CC2)s1
2. CCc1nc(N[C@@H](C)CN2CCN(S(=O)(=O)c3sc(NC(C)=O)nc3C)CC2)c2scc(C)c2n1
3. Cc1nc(-c2ccc(S(=O)(=O)N3CCN(C[C@H](C)Nc4ncnc5c(C)csc45)CC3)s2)cs1
4. Cc1csc2c(N[C@@H](C)CN3CCN(S(=O)(=O)c4ccc(-c5cc(C(F)(F)F)n(C)n5)s4)CC3)ncnc12

["10 to 100 nM", "< 1000 nM", "< 1000 nM", "< 1000 nM"]
